- test: Caco-2 cell monolayer permeability
- Assay type: in vitro ADME
- condition_summary: human, Caco-2, pH 7.4
measurement_kind: Papp B→A at 25 µM (×10⁻⁶ cm/s)
Numbers only here, please. The scale is ×10⁻⁶ cm/s.

Task: Request the reported Papp B→A at 25 µM associated with Cl.Cl.NCCCn1c2c(c3ccc(N)cc3c1=O)C(=O)c1ccccc1-2
Output: 8.26

###

- test: Caco-2 cell monolayer permeability
- Format: in vitro ADME
- condition_summary: human, Caco-2, pH 7.4
measurement_kind: Papp A→B at 5 µM (×10⁻⁶ cm/s)
Just the number in ×10⁻⁶ cm/s, nothing appended.

Task: Reported Papp A→B at 5 µM for Cl.Cl.NCCCn1c2c(c3ccc(N)cc3c1=O)C(=O)c1ccccc1-2 : what is it?
Output: 2.75

###

- test: Caco-2 cell monolayer permeability
- Format: in vitro ADME
- condition_summary: human, Caco-2, pH 7.4
measurement_kind: Papp A→B at 25 µM (×10⁻⁶ cm/s)
Kindly provide the numeric value in ×10⁻⁶ cm/s only, without the unit symbol.

Task: Query (molecule): Cl.Cl.NCCCn1c2c(c3ccc(N)cc3c1=O)C(=O)c1ccccc1-2 ; field requested: Papp A→B at 25 µM
Output: 4.45

###

- test: Caco-2 cell monolayer permeability
- Type: in vitro ADME
- condition_summary: human, Caco-2, pH 7.4
measurement_kind: Papp B→A at 10 µM (nm/s)
Please reply with the bare figure in nm/s and do not write the unit itself.

Task: Would you kindly share the measured Papp B→A at 10 µM for Cl.Cl.NCCCn1c2c(c3ccc(N)cc3c1=O)C(=O)c1ccccc1-2 ?
Output: 32.5
